# TARGET_OR_TEST_SYSTEM: UniProtKB Q9NUW8
# ASSAY_PROCEDURE: Lineweaver-Burk plot analysis of TDP1 inhibition
# Type: biochemical
# MEASUREMENT_PARAMETERS: FIG. 1 legend, Lineweaver-Burk analysis; read-out: Inhibitory constant Ki
PROPERTY_LABEL: pKi
Scale for pKi: -log10 of concentration given in mol/L; no unit attached.

Assign pKi to the following record: O=C(O)c1ccc(Nc2c(-c3ccccc3)nc3cnccn23)cc1C(=O)O [Compound 10a]
3.96

* * *

# TARGET_OR_TEST_SYSTEM: TDP1 (Homo sapiens (Human), UniProt Q9NUW8)
# Sequence (Q9NUW8 whole entry): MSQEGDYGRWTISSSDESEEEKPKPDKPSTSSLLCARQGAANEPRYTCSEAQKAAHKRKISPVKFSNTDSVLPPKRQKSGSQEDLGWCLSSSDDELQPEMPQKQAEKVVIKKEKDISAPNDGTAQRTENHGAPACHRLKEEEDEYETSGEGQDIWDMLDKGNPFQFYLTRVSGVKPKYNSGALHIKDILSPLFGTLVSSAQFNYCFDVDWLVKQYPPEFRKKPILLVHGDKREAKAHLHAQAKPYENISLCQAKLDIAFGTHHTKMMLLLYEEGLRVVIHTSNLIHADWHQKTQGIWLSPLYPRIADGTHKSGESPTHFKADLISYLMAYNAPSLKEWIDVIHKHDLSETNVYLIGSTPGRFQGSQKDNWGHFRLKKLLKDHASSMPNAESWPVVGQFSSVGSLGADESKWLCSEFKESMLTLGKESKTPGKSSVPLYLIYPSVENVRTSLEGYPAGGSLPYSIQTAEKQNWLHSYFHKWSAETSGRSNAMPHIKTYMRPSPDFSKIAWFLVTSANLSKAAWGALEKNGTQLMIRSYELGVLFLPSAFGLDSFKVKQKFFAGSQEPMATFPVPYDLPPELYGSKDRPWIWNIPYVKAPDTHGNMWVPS
# ASSAY_PROCEDURE: TDP1 gel-based in vitro fluorescence assay
# Assay type: biochemical
# MEASUREMENT_PARAMETERS: Table 7, HPLC-purified oxime leads; read-out: TDP1 IC50
Reported pIC50 values for a set of compounds
Scale for pIC50: -log10 of concentration given in mol/L; no unit attached.

record_smiles=N#Cc1ccc(-c2ccc(/C=N/OCc3ccc4nc(-c5ccccc5)c(Nc5ccc(C(=O)O)cc5)n4c3)cc2)nc1 property_label=pIC50 numeric_result=4.76

Now let's try a different one.
Assign pIC50 to the following record: N#Cc1ccc(-c2ccc(/C=N\OCc3ccc4nc(-c5ccccc5)c(Nc5ccc(C(=O)O)cc5)n4c3)cc2)nc1
4.30

* * *

# TARGET_OR_TEST_SYSTEM: TDP1 (Homo sapiens (Human))
# ASSAY_PROCEDURE: TDP1 gel-based in vitro fluorescence assay
# Type: biochemical
# MEASUREMENT_PARAMETERS: Table 3, values in brackets (footnote vi); read-out: TDP1 IC50 (μM), separated data from previous experiments
Reported IC50 values for a set of compounds
# value in µM; strip the unit string

compound="O=C(O)c1ccc(Nc2c(-c3ccccc3)nc3cnccn23)cc1C(=O)O [Compound 10a]" numeric_result=45.5
compound="O=C(O)c1ccc(Nc2c(-c3ccc(-c4ccccc4)cc3)nc3ccc(C(=O)O)cn23)cc1 [Compound 8n]" numeric_result=1.5

Now let's try a different one.
Assign IC50 to the following record: Cc1ccc(-c2nc3cnccn3c2Nc2cccc(C(=O)O)c2)cc1 [Compound M8]
233

* * *

# TARGET_OR_TEST_SYSTEM: TDP2 (Homo sapiens (Human))
# Sequence (O95551 whole entry, species assumed): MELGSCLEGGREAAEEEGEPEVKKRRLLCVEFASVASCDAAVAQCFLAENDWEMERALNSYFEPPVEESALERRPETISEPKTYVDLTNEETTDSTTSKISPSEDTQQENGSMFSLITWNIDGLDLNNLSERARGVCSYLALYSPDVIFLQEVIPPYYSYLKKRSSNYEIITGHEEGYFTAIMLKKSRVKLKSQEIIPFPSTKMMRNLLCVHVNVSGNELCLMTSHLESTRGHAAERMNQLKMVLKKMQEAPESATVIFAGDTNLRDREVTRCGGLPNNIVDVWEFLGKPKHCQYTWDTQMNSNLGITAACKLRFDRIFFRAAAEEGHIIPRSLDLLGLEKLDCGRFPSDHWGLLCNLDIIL
# ASSAY_PROCEDURE: gel-based TDP2 fluorescence assay in vitro
# Type: biochemical
# MEASUREMENT_PARAMETERS: Table 8, lead compounds with different linkers; read-out: TDP2 IC50
PROPERTY_LABEL: IC50 (µM)
# value in µM; strip the unit string

record_smiles=N#Cc1ccc(-c2ccc(Cn3cc(-c4ccc(-c5nc6ccccn6c5Nc5ccc(C(=O)O)cc5)cc4)nn3)cc2)nc1 numeric_result=62.4
record_smiles=N#Cc1ccc(-c2ccc(Cn3cc(-c4ccc5nc(-c6ccccc6)c(Nc6ccc(C(=O)O)cc6)n5c4)nn3)cc2)nc1 numeric_result=69.1

Now let's try a different one.
Assign IC50 to the following record: N#Cc1ccc(-c2ccc(Cn3cc(COc4ccc(-c5nc6cc(-c7ccccc7)ccn6c5Nc5ccc(C(=O)O)cc5)cc4)nn3)cc2)nc1
32.9

* * *

Reported IC50 values for a set of molecules
# TARGET_OR_TEST_SYSTEM: TDP2 (Homo sapiens (Human))
# ASSAY_PROCEDURE: gel-based TDP2 fluorescence assay in vitro
# Format: biochemical
# MEASUREMENT_PARAMETERS: Table 10, PROTACs; read-out: TDP2 IC50

These solved cases illustrate the format of a correct answer.
molecule="O=C(COc1cccc2c1C(=O)N(C1CCC(=O)NC1=O)C2=O)NCCCCn1cc(COc2ccc(-c3nc4ccccn4c3Nc3ccc(C(=O)O)cc3)cc2)nn1 (centres unmarked)" result="> 100 µM"
molecule=Cc1ncsc1-c1ccc(CNC(=O)[C@@H]2C[C@@H](O)CN2C(=O)[C@@H](NC(=O)COCCOCCOCCn2cc(COc3ccc(-c4nc5cc(-c6ccccc6)ccn5c4Nc4ccc(C(=O)O)cc4)cc3)nn2)C(C)(C)C)cc1 result="> 100 µM"
molecule=Cc1ncsc1-c1ccc(CNC(=O)[C@@H]2C[C@@H](O)CN2C(=O)[C@@H](NC(=O)COCCOCCOCCn2cc(-c3ccn4c(Nc5ccc(C(=O)O)cc5)c(-c5ccccc5)nc4c3)nn2)C(C)(C)C)cc1 result="> 100 µM"
molecule=Cc1ncsc1-c1ccc(CNC(=O)[C@@H]2C[C@@H](O)CN2C(=O)[C@@H](NC(=O)COCCOCCn2cc(COc3ccc(-c4nc5cc(-c6ccccc6)ccn5c4Nc4ccc(C(=O)O)cc4)cc3)nn2)C(C)(C)C)cc1 result="> 100 µM"

Assign IC50 to the following record: O=C1CCC(N2C(=O)c3cccc(NCCc4cn(Cc5ccc(-c6nc7cc(-c8ccccc8)ccn7c6Nc6ccc(C(=O)O)cc6)cc5)nn4)c3C2=O)C(=O)N1 (centres unmarked)
16.8 µM

Data provenance is patent US20250011330A1.
